Where do the numbers come from? From patent US20210070735A1.

Protein target, amino acids: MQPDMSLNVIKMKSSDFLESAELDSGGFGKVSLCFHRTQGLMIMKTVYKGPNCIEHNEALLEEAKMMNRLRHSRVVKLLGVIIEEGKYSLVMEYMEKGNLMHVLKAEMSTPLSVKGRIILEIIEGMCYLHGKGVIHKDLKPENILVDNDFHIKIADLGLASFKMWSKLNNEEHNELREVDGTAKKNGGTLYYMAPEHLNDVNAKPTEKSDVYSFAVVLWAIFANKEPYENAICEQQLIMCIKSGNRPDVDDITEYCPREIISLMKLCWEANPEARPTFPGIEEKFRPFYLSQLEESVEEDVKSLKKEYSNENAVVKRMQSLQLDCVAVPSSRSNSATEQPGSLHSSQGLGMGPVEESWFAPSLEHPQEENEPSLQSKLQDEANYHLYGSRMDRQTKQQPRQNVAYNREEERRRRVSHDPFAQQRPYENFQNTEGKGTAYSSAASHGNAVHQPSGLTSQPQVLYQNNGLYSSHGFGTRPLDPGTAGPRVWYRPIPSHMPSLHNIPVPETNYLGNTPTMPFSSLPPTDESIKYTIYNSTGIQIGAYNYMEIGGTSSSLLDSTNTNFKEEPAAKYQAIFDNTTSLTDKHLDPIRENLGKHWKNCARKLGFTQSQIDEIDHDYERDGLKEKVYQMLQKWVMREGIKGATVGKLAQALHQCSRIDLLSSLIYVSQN
Readout Type: IC50 (nM)

Compound	Value Observed
CN1C(=O)C(NC(=O)c2cc(Oc3ccccc3)ccn2)CCc2ccc(N3CC4(CCCCC4)C3)cc21 (racemic)	603

(1) CN1C(=O)[C@@H](NC(=O)n2cc(Cc3ccc(F)cc3)cn2)CCc2ccc(C#CC3(O)CCOCC3)cc21
(2) CN1C(=O)C(NC(=O)c2n[nH]c(Cc3ccccc3)n2)CCc2ccc(N3CCN4CCC3CC4)cc21 (racemic)
(3) CN1C(=O)C(NC(=O)c2cc(Oc3ccccc3)ccn2)CCc2ccc(CN3CCN(c4ccncc4)CC3)cc21 (racemic)
**Q:** Could you please order the items by IC50, going from the lowest number to the highest? Labels, ranked as asked.
**A:** 1, 3, 2
(1: 26 nM, 3: 68.9 nM, 2: 808 nM)
